protocol-summary: NCI Yeast Anticancer Drug Screen. Data for the mlh1 rad18 strain (AID 175)
condition-notes: S. cerevisiae mlh1 rad18 strain growth inhibition; at 50.0 µM (retest, dose inferred, filed as 5.0)
This is part of a sample that, as a whole, favours compounds with a hit. Of some 79,000 tested, about 15% had one in any assay. Calls of active or inactive are those of the source. Cut-off read from the data, not from the text of the source: active = growth inhibition above about 70%; inactive = the rest.
The reply should name one outcome from active, inactive

Recorded results for 3 compounds are shown here.
| compound | qualitative-label |
| --- | --- |
| O=c1oc2ccccc2c(O)c1C(c1ccc(/C=C/c2ccccc2)cc1)c1c(O)c2ccccc2oc1=O | active |
| CC1(C)CCC(C)(C)c2cc(Cl)c(O)cc21 | inactive |
| C[CH2][Sn]([CH2]C)([O]S(C)(=O)=O)[O]S(C)(=O)=O | active |

INPUT: Recorded test outcome, item Oc1cccc2cccnc12 (tested in a mixture with another compound)
OUTPUT: inactive

INPUT: Recorded test outcome, item N#C[SH2+].N#C[SH2+].N#C[SH2+].N#C[SH2+].[Cu+2].c1ccc(C[P+](c2ccccc2)(c2ccccc2)c2ccccc2)cc1
OUTPUT: active

INPUT: Recorded test outcome, item CC1(Cl)CC(C)(/C=C/Cl)C(Cl)CC1Cl (stereo not given)
OUTPUT: inactive

INPUT: Recorded test outcome, item [Ni+2].[O-][Cl+3]([O-])([O-])O.c1ccc([PH+](CC[PH+](c2ccccc2)c2ccccc2)c2ccccc2)cc1.c1ccc([PH+](CC[PH+](c2ccccc2)c2ccccc2)c2ccccc2)cc1
OUTPUT: inactive

INPUT: Recorded test outcome, item CC1([CH2][Hg][I])CS(=O)(=O)CC(C)([CH2][Hg][I])O1 (stereo not given)
OUTPUT: active

INPUT: Recorded test outcome, item c1ccc(N=c2nc(N3CCOCC3)ss2)cc1
OUTPUT: active

INPUT: Recorded test outcome, item C/C(=N\O)C(CN(C)C)C(c1ccccc1)c1c(O)c2ccccc2oc1=O (stereo not given)
OUTPUT: inactive

INPUT: Recorded test outcome, item CCCCN1C(=O)C2C(C1=O)C1(Cl)C(Cl)=C(Cl)C2(Cl)C1(Cl)Cl (stereo not given)
OUTPUT: active

INPUT: Recorded test outcome, item CN(C)C(=S)[S][Sb]([c]1ccccc1)[c]1ccccc1
OUTPUT: active

INPUT: Recorded test outcome, item CCC[N+](CCC)(CCC)CCC.N#CN=C([SH2+])[SH2+].N#CN=C([SH2+])[SH2+].[Pt+2]
OUTPUT: inactive

INPUT: Recorded test outcome, item c1ccncc1
OUTPUT: inactive

INPUT: Recorded test outcome, item CC[CH2][Sn]([Br])([Br])[CH2]CC
OUTPUT: active

INPUT: Recorded test outcome, item COC1/C=C\C=C(/C)C(=O)NC2=CC(=O)C(NCCCl)=C(CC(C)CC(OC)C(O)C(C)/C=C(/C)C1OC(N)=O)C2=O (stereo not given)
OUTPUT: active

INPUT: Recorded test outcome, item CC1CCC2(OC1)OC1CC3C4CC=C5CC(OC6OC(CO)C(OC7OC(C)C(OC8OC(C)C(O)C(O)C8O)C(O)C7O)C(O)C6OC6OC(C)C(O)C(O)C6O)CCC5(C)C4CCC3(C)C1C2C (stereo not given)
OUTPUT: active

INPUT: Recorded test outcome, item CC#C[P+](c1ccccc1)(c1ccccc1)c1ccccc1
OUTPUT: active

INPUT: Recorded test outcome, item CC(C)NCC(O)c1ccccc1Cl (stereo not given)
OUTPUT: inactive

INPUT: Recorded test outcome, item C[N+]1(CCCl)CC[N+](C)(CCCl)CC1 (stereo not given)
OUTPUT: active
